Cited source: patent US20050249750A1

- target system: T1, soluble DR4 (DRB1*0401) class II molecules purified from BSM or PREISS EBV-B cells (human), P01903
- T1 chain 1: not shown
- T1 chain 2: not shown
- assay summary: peptide competition ELISA, soluble DR4, biotinylated indicator GFK(A)7
measurement label: IC50

Q: Which IC50 is listed for DPNANPNVDPNANPNV (modifications not checked) ?
Result: > 100 µM
